Reported IC50 values for a set of binders
assayed.system: T1, human wild-type IL-13 (mature chain) (human, UniProt P35225 35-146, Biotinylated on amines (NHS-LC-biotin) in the competition assays. The letters are unchanged.)
T1 construct: wild type has R at 110; Bought (Peprotech, R&D Systems); also called wt IL-13; IL-13-WT
procedure.summary: Luminex competition, inhibition of 500 pg/ml biotinylated wt IL-13 binding to IL-13Ra2
property.name: IC50 (ng/mL)

binder	test.result
mAb Lc-2B03 with Hc2 M34E, M100L, V106I (antibody, V domains shown, full-length mAb) VH: QVTLKESGPVLVKPTETLTLTCTVSGFSLSTYGEGVGWIRQPPGKALEWLAHIWWDDVKRYNPALKSRLTISKDTSKSQVVLTMTNMDPVDTATYYCARLGSDYDIWFDYWGQGTLVTVSS VL: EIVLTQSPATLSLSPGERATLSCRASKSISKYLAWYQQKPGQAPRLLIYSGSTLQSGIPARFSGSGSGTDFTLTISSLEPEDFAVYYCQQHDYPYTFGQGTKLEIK	2.54
mAb Lc-2B03 with Hc2 M34S, M100L, V106I (antibody, V domains shown, full-length mAb; both are written under this molecule) VH: QVTLKESGPVLVKPTETLTLTCTVSGFSLSTYGSGVGWIRQPPGKALEWLAHIWWDDVKRYNPALKSRLTISKDTSKSQVVLTMTNMDPVDTATYYCARLGSDYDIWFDYWGQGTLVTVSS VL: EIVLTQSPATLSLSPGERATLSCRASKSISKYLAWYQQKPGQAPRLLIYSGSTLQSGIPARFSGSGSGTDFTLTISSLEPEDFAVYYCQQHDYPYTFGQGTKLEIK	2.25
mAb Lc-2B03 with Hc2 T31S, M34V, M100L (antibody, V domains shown, full-length mAb, made in HEK293 and CHO) VH: QVTLKESGPVLVKPTETLTLTCTVSGFSLSSYGVGVGWIRQPPGKALEWLAHIWWDDVKRYNPALKSRLTISKDTSKSQVVLTMTNMDPVDTATYYCARLGSDYDVWFDYWGQGTLVTVSS VL: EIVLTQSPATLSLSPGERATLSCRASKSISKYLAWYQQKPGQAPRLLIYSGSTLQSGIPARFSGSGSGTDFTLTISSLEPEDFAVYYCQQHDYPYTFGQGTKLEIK	1.75
